- protocol summary: Aqueous stability of dimers in buffered pH solutions (TLC, LCMS/HPLC UV)
- Format: physicochemical
- experimental setup: bicarbonate buffer pH 12.5 / acetonitrile (1:1); pH 12.5 (bicarbonate) buffer, 50% MeCN: buffer, 5 mg/mL dimer, r.t., after 7 days, from HPLC UV traces
measurement label: remaining at 168 h, 5 mg/mL (%)
One number for each entry, in %.

Problem: // query remaining at 168 h, 5 mg/mL value for entry COC(=O)c1ccc(OC(=O)c2ccc(O)c(OC)c2)c(OC)c1
Result: 49

Please look at the following compound next.
Problem: Consider the compound shown here: C=CCOc1ccc(C(=O)Oc2ccc(C(=O)OC)cc2OC(C)C)cc1OC(C)C What is its recorded remaining at 168 h, 5 mg/mL?
Result: 6
